PROTOCOL: ATP-based viability of Huh7 replicon cells – cell-based, CellTiter-Glo luminescence, basal, 48 h, cytotoxicity control for HCV replication inhibitor project, primary screen (AID 1143);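 further: Huh7 hepatoma cells carrying a hepatitis C replication reporter with no stimulus; test concentration not given here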
MEASUREMENT CONDITIONS: higher = more signal, called active from +8 up or from −8 down
Each item that follows carries a reported z-score.
Answer using only a numeral; do not append any unit.

Sample records with z-score:
>>> observed_result("NC(=O)[C@@]1(CCS(=O)(=O)c2ccccc2)N=C(c2ccc(OCCCO)cc2)O[C@H]1c1ccccc1")
-5.04
>>> observed_result("Cc1ccc(S(=O)(=O)N2CC(C(=O)O)=CCC2c2ccccc2)cc1 (stereo unspecified)")
0.0982
>>> observed_result("CC(c1ccccc1)C(O)C1C=CC2C(=O)N(Cc3ccccc3)C(=O)C2N1n1cnnc1 (stereo unspecified)")
-0.0357
>>> observed_result("O=[N+]([O-])c1ccc(C[n+]2ccc(CCCO)cc2)o1")
-1.22

Asked: Which z-score value is on record for "CC[C@@H]1C=C(C(=O)O)[C@H](c2ccc(C(C)C)cc2)N1S(=O)(=O)c1ccc(C)cc1" ?
Given back: -0.822

Asked: Looking for the measured z-score of CS(=O)(=O)CCOC(=O)C1=CC(c2ccc(CO)cc2)=CC(c2cccs2)N(Cc2cccc(OC(F)(F)F)c2)C=C1C(=O)OCCS(C)(=O)=O (stereo unspecified) , can you help?
Given back: -3.67

Taken from PubChem BioAssay.
